Tested on: KM12 colon
Assay: NCI tumour cell line growth inhibition, 48 h
propertyLabel: TGI

compound: Cc1nc(-n2nc(-c3ccccc3)cc2-c2ccccc2)sc1C(=O)/C=C/c1ccc([N+](=O)[O-])cc1
TGI: 38.1 µM
--
compound: CC1(O)C2(c3ccccc3)CCC[N+]1(C)CC2 (centres undefined)
TGI: > 100 µM
--
compound: O=S1(=O)c2ccccc2N2C(c3ccccc3)=NOC2(c2ccccc2)CC1c1ccc(Br)cc1 (centres undefined)
TGI: > 100 µM

Attention now turns to another entry.
Req: Hi! What's the reported TGI for Cc1ccc2nc(CN(CCO)CCO)cc(=O)n2c1 on KM12 colon?
Resp: > 100 µM

* * *

Test system: DMS 114 small cell lung
Test: NCI tumour cell line growth inhibition, 48 h
Catalogue of TGI values

Sample records with TGI:
compound: CC(C)c1cccc(C(C)C)c1NC(=O)C(=O)C1CCC2=C(Sc3ccccc3N2)C1=O (centres undefined)
testResult: > 100 µM
--
compound: C[N+](C)(C)C1CC([N+](C)(C)C)C2c3ccccc3C21 (centres undefined)
testResult: > 100 µM
--
compound: O=C1NC(=S)NC(=O)C1=CC1CC1
testResult: > 100 µM
--
compound: N#Cc1ccccc1NC(=O)C(=O)C(C(=O)c1ccncc1)C1OC(=O)c2ccccc21 (centres undefined)
testResult: > 100 µM
--
compound: COc1ccc(-c2oc3c(OC)c(OC)c(OC)c(O)c3c(=O)c2OC)cc1O
testResult: 0.0784 µM
--
compound: COc1cc(/C=C2\NC(=O)C3Cc4c(OC)c(C)c(OC)c(OC)c4C2N3C)c(OC)c(C)c1OC (centres undefined)
testResult: > 100 µM

Req: Suppose we examine the compound O=c1[nH]nc(CNc2ccc(Cl)cc2Cl)c2ccccc12 ; what TGI value has been reported?
Resp: 37.1 µM

Req: Suppose we examine the compound CN1N=C2c3ccccc3OC(c3ccccc3)[C@H]2C1c1ccccc1 (some centres undefined) ; what TGI value has been reported?
Resp: > 100 µM

Req: Suppose we examine the compound CCCCCCCC(=O)OC[C@H](C[As](=O)(O)O)OC(=O)CCCCCCC ; what TGI value has been reported?
Resp: 19.5 µM

* * *

Tested on: SF-268 CNS
Test: NCI tumour cell line growth inhibition, 48 h
propertyLabel: TGI

Sample records with TGI:
molecule: CC(ON1[C@](C)(c2ccccc2)CC[C@@]1(C)c1ccccc1)c1ccccc1 (stereo partly drawn)
TGI: > 100 µM
//
molecule: [C-]#[N+]C(=C\c1ccc(O)cc1)/C(=C/c1ccc(O)cc1)[N+]#[C-]
TGI: > 100 µM

Attention now turns to another entry.
Req: Suppose we examine the molecule Cc1ccc2nc(CN(CCO)CCO)cc(=O)n2c1 ; what TGI value has been reported?
Resp: > 100 µM

* * *

System: A498 renal
Experiment: NCI tumour cell line growth inhibition, 48 h
propertyLabel: TGI

smilesRepr: C#CCOC(=O)/C=C/C(=O)Oc1ccc2c(C)cc(=O)oc2c1
propertyLabel: TGI
testResult: > 100 µM
--
smilesRepr: COc1ccccc1NC(=O)C1=C(C)NC(C)=C(C(=O)Nc2ccccc2OC)C1c1ccccc1Cl
propertyLabel: TGI
testResult: > 100 µM

Attention now turns to another entry.
Req: Suppose we examine the compound O=C(O)c1ccccc1/C=C1/Cc2ccc3c(c2C1=O)CCC3 ; what TGI value has been reported?
Resp: > 100 µM
